Reference source for all entries: ChEMBL document CHEMBL1156136

System: HT-29
Assay: Hypoxic cytotoxicity ratio, IC50 for human HT-29 cells in oxic condition to IC50 for human HT-29 cells in hypoxic condition
Type: functional
endpoint: Ratio IC50

>>> val("COC(=O)c1ccc2c3c(cc(N)c2c1)N(C(=O)c1cc2cc(OCCN(C)C)ccc2[nH]1)CC3CCl (centres undefined)")
1.7
>>> val("CC(=O)c1ccc2c3c(cc(N)c2c1)N(C(=O)c1cc2cc(OCCN(C)C)ccc2[nH]1)CC3CCl (centres undefined)")
1.5
>>> val("COc1cc2cc(C(=O)N3CC(CCl)c4c3cc([N+](=O)[O-])c3ccc(S(N)(=O)=O)cc43)[nH]c2c(OC)c1OC (centres undefined)")
1.9
>>> val("COc1cc2cc(C(=O)N3CC(CCl)c4c3cc(N)c3cc(S(N)(=O)=O)ccc43)[nH]c2c(OC)c1OC (centres undefined)")
1.1
>>> val("COc1cc2cc(C(=O)N3CC(CCl)c4c3cc([N+](=O)[O-])c3cc([N+](=O)[O-])ccc43)[nH]c2c(OC)c1OC (centres undefined)")
12
>>> val("CN(C)CCOc1ccc2[nH]c(C(=O)N3CC(CCl)c4c3cc(N)c3ccccc43)cc2c1 (centres undefined)")
1.3
>>> val("COc1cc2cc(C(=O)N3CC(CCl)c4c3cc([N+](=O)[O-])c3cc(C(N)=O)ccc43)[nH]c2c(OC)c1OC (centres undefined)")
2.8
>>> val("CN(C)CCOc1ccc2[nH]c(C(=O)N3CC(CCl)c4c3cc(N)c3cc(S(C)(=O)=O)ccc43)cc2c1 (centres undefined)")
1.6
>>> val("COc1cc2cc(C(=O)N3CC(CCl)c4c3cc(N)c3cc(S(C)(=O)=O)ccc43)[nH]c2c(OC)c1OC (centres undefined)")
0.86
>>> val("CN(C)CCOc1ccc2[nH]c(C(=O)N3CC(CCl)c4c3cc(N)c3ccc(S(C)(=O)=O)cc43)cc2c1 (centres undefined)")
1.9
>>> val("COc1cc2cc(C(=O)N3CC(CCl)c4c3cc([N+](=O)[O-])c3c(C(C)=O)cccc43)[nH]c2c(OC)c1OC (centres undefined)")
2
>>> val("CC(=O)c1ccc2c3c(cc([N+](=O)[O-])c2c1)N(C(=O)c1cc2cc(OCCN(C)C)ccc2[nH]1)CC3CCl (centres undefined)")
1.5
>>> val("COc1cc2cc(C(=O)N3CC(CCl)c4c3cc([N+](=O)[O-])c3cc(S(C)(=O)=O)ccc43)[nH]c2c(OC)c1OC (centres undefined)")
2
>>> val("CC(=O)c1cccc2c3c(cc([N+](=O)[O-])c12)N(C(=O)c1cc2cc(OCCN(C)C)ccc2[nH]1)CC3CCl (centres undefined)")
5.2
>>> val("COC(=O)c1ccc2c3c(cc([N+](=O)[O-])c2c1)N(C(=O)c1cc2cc(OCCN(C)C)ccc2[nH]1)CC3CCl (centres undefined)")
1.2
>>> val("COc1cc2cc(C(=O)N3CC(CCl)c4c3cc(N)c3cc(C#N)ccc43)[nH]c2c(OC)c1OC (centres undefined)")
1.9
>>> val("CN(C)CCOc1ccc2[nH]c(C(=O)N3CC(CCl)c4c3cc([N+](=O)[O-])c3ccc(C#N)cc43)cc2c1 (centres undefined)")
1.4
>>> val("CN(C)CCOc1ccc2[nH]c(C(=O)N3CC(CCl)c4c3cc([N+](=O)[O-])c3cc([N+](=O)[O-])ccc43)cc2c1 (centres undefined)")
9.6
>>> val("CN(C)CCOc1ccc2[nH]c(C(=O)N3CC(CCl)c4c3cc([N+](=O)[O-])c3cc(S(C)(=O)=O)ccc43)cc2c1 (centres undefined)")
4
>>> val("CN(C)CCOc1ccc2[nH]c(C(=O)N3CC(CCl)c4c3cc([N+](=O)[O-])c3c(C(N)=O)cccc43)cc2c1 (centres undefined)")
43
>>> val("COc1cc2cc(C(=O)N3CC(CCl)c4c3cc(N)c3ccccc43)[nH]c2c(OC)c1OC (centres undefined)")
0.76
>>> val("COc1cc2cc(C(=O)N3CC(CCl)c4c3cc([N+](=O)[O-])c3cc(C#N)ccc43)[nH]c2c(OC)c1OC (centres undefined)")
2.5
>>> val("COC(=O)c1ccc2c3c(cc([N+](=O)[O-])c2c1)N(C(=O)c1cc2cc(OC)c(OC)c(OC)c2[nH]1)CC3CCl (centres undefined)")
3.2
>>> val("COc1cc2cc(C(=O)N3CC(CCl)c4c3cc(N)c3cc(C(N)=O)ccc43)[nH]c2c(OC)c1OC (centres undefined)")
2.3

---

Tested on: HT-29
Test: Cytotoxicity against human HT-29 cells in oxic condition after 4 hrs by sulforhodamine B assay
Format: functional, cell-based
Settings: HT-29, 4 h
pIC50: −log10 of the molar value.
endpoint: pIC50

>>> val("COc1cc2cc(C(=O)N3CC(CCl)c4c3cc([N+](=O)[O-])c3cc(S(N)(=O)=O)ccc43)[nH]c2c(OC)c1OC (centres undefined)")
4.37
>>> val("CN(C)CCOc1ccc2[nH]c(C(=O)N3CC(CCl)c4c3cc(N)c3cc(S(N)(=O)=O)ccc43)cc2c1 (centres undefined)")
4.46
>>> val("COc1cc2cc(C(=O)N3CC(CCl)c4c3cc([N+](=O)[O-])c3cc(C(C)=O)ccc43)[nH]c2c(OC)c1OC (centres undefined)")
5.39
>>> val("CC(=O)c1cccc2c3c(cc([N+](=O)[O-])c12)N(C(=O)c1cc2cc(OCCN(C)C)ccc2[nH]1)CC3CCl (centres undefined)")
6.70

---

Measured IC50 values are reported for all entries that follow.
Test system: HT-29
Assay: Cytotoxicity against human HT-29 cells in oxic condition after 4 hrs by sulforhodamine B assay
Assay type: functional, cell-based
Conditions: HT-29, 4 h
endpoint: IC50 (nM)

>>> val("CN(C)CCOc1ccc2[nH]c(C(=O)N3CC(CCl)c4c3cc([N+](=O)[O-])c3ccc(C#N)cc43)cc2c1 (stereo not drawn)")
1400
>>> val("CN(C)CCOc1ccc2[nH]c(C(=O)N3CC(CCl)c4c3cc([N+](=O)[O-])c3cccc([N+](=O)[O-])c43)cc2c1 (stereo not drawn)")
1400
>>> val("COc1cc2cc(C(=O)N3CC(CCl)c4c3cc([N+](=O)[O-])c3c(C(C)=O)cccc43)[nH]c2c(OC)c1OC (stereo not drawn)")
680
